Reference for the values: the supplement of paper PMC7125110

B1: glmS ribozyme (parent)
chain: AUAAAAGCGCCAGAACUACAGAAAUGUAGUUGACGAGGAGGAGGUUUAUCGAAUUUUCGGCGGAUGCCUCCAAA

Variants of: B1
experimentDescription: self-cleavage kobs at 10000 uM GlcN6P; higher = faster cleavage; RNA array
testParameters: with glucosamine-6-phosphate
This sample holds only a part of the variants without activity.
Please enter met where self-cleavage kobs at 10000 uM GlcN6P is greater than or equal to 0.0001 s⁻¹, and not met where it is lower.

Some entries whose results are on file:
[[record]]
entrysequence = "AUAAAAGCGCCAGAACUACAGAAAUGUAGUUGACGAGGAGGAGUUUUAUCGAAUUUUCGCCUGAUGCCUCCAAA"
classname = "not met"

[[record]]
entrysequence = "AUAAAAGCGCCAGAACUACAGAAAUGUAGUUGACGAGGAGUAGGUUUAUCGAAUAUUCGGCGGAUGCCUCCAAA"
classname = "met"

[[record]]
entrysequence = "AUAAAAGCACCAGAACUACAGAAAUGUAGUUGACGAGGAGGAGGUUUAUCGAAUUUUCGGCGGAUGCGUCCAAA"
classname = "not met"

[[record]]
entrysequence = "AUAAAAGCCCCAGAACUACAGAAAUGUAGUUGACGAGCAGGAUGUUUAUCGAAUUUUCGGCGGAUGCCUCCAAA"
classname = "not met"

[[record]]
entrysequence = "AUAAAAGCCCCAGAACUACAGAAAUGUAGUUGACGAGGAGGAGGUUCAUCGAGUUUUCGGCAGAUGCGUCCAAA"
classname = "not met"


With those in mind, consider the next variant.
Task: Check the entry AUAAAAGCGCCAGAACUACAGAAAUGUAGUUGACGAGGAGGAGGUUUAUCGAAUUUUCGGCGGGUGCCCCCAAA : does self-cleavage kobs at 10000 uM GlcN6P equal or exceed 0.0001 s⁻¹?
Output: met
